Listed below are compounds with pIC50 for IRAK4 (Homo sapiens (Human)), each taken from published literature.
pIC50: −log10 of the molar value.
endpoint name: pIC50

Consider the reported pIC50 for these compounds:
Cc1cccc(Nc2ncc(-c3nc4ccccc4s3)c(N[C@@H]3CC(C(C)(C)O)[C@@H](O)[C@H]3O)n2)c1 (stereo in doubt) = 7.80
CC(C)Nc1cc(-n2ccc3cncnc32)ncc1-c1cn([C@@H]2CCNC[C@@H]2O)nn1 = 8.15

P = CC(C)(O)c1cnc(Nc2cc(-c3cnn4cc(Cl)cnc34)ncc2C(=O)NC[C@@H](F)C(C)(C)O)s1
Q = CC(C)Nc1cc(-c2cnn3cc(Cl)cnc23)ncc1C(=O)NCCC(=O)N1CCOCC1
(Q) Hi team, can someone confirm which has the larger pIC50: P or Q ? Thanks. Select an item and report its label.
(A) P
(P: 8.10, Q: 7.33)
